target: DNA topoisomerase 2-alpha (Homo sapiens)
Sequence (P11388 whole entry): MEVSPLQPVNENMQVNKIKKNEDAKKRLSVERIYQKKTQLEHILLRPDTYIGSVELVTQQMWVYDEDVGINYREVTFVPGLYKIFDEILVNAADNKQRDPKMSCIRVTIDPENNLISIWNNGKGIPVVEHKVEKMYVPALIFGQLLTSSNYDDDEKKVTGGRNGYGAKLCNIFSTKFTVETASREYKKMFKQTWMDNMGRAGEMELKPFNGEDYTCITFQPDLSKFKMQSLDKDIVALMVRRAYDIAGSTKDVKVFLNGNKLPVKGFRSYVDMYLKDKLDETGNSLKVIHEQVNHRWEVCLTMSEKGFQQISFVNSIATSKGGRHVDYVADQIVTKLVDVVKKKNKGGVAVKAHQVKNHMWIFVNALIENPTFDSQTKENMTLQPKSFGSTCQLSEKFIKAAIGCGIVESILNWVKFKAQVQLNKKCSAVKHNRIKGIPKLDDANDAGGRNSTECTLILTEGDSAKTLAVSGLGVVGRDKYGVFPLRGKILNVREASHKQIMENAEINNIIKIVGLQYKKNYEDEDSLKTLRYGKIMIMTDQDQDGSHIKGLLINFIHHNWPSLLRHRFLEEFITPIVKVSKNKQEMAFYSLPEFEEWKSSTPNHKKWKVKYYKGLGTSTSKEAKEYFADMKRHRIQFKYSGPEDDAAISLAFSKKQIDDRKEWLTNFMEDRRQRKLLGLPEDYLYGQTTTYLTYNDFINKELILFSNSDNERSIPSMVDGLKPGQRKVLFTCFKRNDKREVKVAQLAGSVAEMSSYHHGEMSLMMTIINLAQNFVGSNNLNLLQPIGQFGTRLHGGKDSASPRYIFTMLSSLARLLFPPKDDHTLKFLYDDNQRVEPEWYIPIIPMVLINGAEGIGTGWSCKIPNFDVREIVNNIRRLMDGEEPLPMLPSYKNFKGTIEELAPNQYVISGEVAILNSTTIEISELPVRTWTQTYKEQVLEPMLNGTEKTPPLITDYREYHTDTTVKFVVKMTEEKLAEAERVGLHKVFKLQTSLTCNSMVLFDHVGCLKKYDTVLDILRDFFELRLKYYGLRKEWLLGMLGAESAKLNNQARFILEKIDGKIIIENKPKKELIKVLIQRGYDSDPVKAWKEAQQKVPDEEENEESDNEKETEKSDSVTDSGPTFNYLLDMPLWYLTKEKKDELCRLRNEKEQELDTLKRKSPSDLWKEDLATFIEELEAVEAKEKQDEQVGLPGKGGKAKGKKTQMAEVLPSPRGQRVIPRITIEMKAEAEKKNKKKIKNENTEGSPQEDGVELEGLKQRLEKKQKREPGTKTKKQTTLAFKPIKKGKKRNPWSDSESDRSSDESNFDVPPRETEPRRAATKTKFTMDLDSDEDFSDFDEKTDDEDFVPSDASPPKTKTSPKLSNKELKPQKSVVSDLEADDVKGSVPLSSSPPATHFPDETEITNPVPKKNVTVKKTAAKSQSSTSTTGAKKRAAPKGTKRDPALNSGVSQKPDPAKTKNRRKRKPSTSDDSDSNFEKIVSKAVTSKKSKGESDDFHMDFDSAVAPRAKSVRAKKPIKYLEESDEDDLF
readoutType: IC50

# molecule, measuredOn, measuredResult
measured = [
    ("NC(=S)N1N=C(c2cccnc2)CC1c1cn(-c2ccccc2)nc1-c1ccc(Cl)cc1 (stereo not drawn)", "DNA topoisomerase 2-alpha (Homo sapiens)", "406 µM"),
    ("CCOC(=O)C1C(=O)C=C(c2cn(-c3ccccc3)nc2-c2cccc([N+](=O)[O-])c2)CC1c1cccnc1 (stereo not drawn)", "DNA topoisomerase 2-alpha (Homo sapiens)", "< 100 µM"),
    ("CCOC(=O)C1C(=O)C=C(c2cn(-c3ccccc3)nc2-c2ccc(F)cc2)CC1c1cccnc1 (stereo not drawn)", "DNA topoisomerase 2-alpha (Homo sapiens)", "< 100 µM"),
]
